Tested on: M14 melanoma
Assay: NCI tumour cell line growth inhibition, 48 h; in the data active means GI50 below about 0.43 µM; inactive means the rest
Entry note: the call must match one of active, inactive

Prompt: I would be grateful if you could indicate the recorded call for "Cc1ccc([P+](Cc2ccc([N+](=O)[O-])cc2)(c2ccc(C)cc2)c2ccc(C)cc2)cc1" .
Completion: inactive

Prompt: I would be grateful if you could indicate the recorded call for "O=C1C=C(Nc2cccc(Br)c2)c2ccccc2C1=O" .
Completion: inactive

Prompt: I would be grateful if you could indicate the recorded call for "CC(=O)[CH-]C(=O)c1ccccc1.CC(=O)[CH-]C(=O)c1ccccc1.[O]=[U+2]=[O]" .
Completion: inactive

Prompt: I would be grateful if you could indicate the recorded call for "Cc1ccc(NCSc2ccc(Cl)cc2)cc1" .
Completion: inactive

Prompt: I would be grateful if you could indicate the recorded call for CC1Cc2c(N(C)C)ncnc2N(C)c2ccc(Cl)cc21 (stereo not given) .
Completion: inactive

Prompt: I would be grateful if you could indicate the recorded call for "COc1ccccc1Cn1cc2c(c1)-c1oncc1CC2" .
Completion: inactive

Prompt: I would be grateful if you could indicate the recorded call for Cc1nn(-c2ccccc2)c2c1C1C(=C(c3ccc(Cl)cc3)N2)C(=O)Nc2ccccc21 (stereo not given) .
Completion: inactive

Prompt: I would be grateful if you could indicate the recorded call for "Nc1ncnc2occ(-c3ccc(NC(=O)Nc4cc(C(F)(F)F)cc(C(F)(F)F)c4)cc3)c12" .
Completion: inactive

Prompt: I would be grateful if you could indicate the recorded call for "O=C1c2c(O)cccc2C(C(=O)CCCCC(=O)C2c3cccc(O)c3C(=O)c3c(O)cccc32)c2cccc(O)c21" .
Completion: inactive

Prompt: I would be grateful if you could indicate the recorded call for COc1ccc(C2=CC(c3cc(OC)c(OC)c(OC)c3)n3ncnc3N2)cc1 (stereo not given) .
Completion: active

----------
System: NCI-H460 lung
Entry note: the call must match one of active, inactive

Prompt: I would be grateful if you could indicate the recorded call for "O=C(N[C@@H]1CCCc2ccccc21)[C@H](CCC(=O)N1CCN(C2CCCCC2)CC1)N1C(=O)[C@@H](N2C(=O)OC[C@@H]2c2ccccc2)[C@H]1/C=C/c1ccccc1" .
Completion: inactive

Prompt: I would be grateful if you could indicate the recorded call for "COc1ccc(C[C@H]2C[C@@H](O)[C@@H](C)C/C=C/Cc3cccc(O)c3C(=O)O2)cn1" .
Completion: inactive

Prompt: I would be grateful if you could indicate the recorded call for "CCOC(=O)c1[nH]c2c(c1C)-c1[nH]c(=O)c(S(=O)(=O)c3ccccc3)cc1SC2" .
Completion: inactive

Prompt: I would be grateful if you could indicate the recorded call for COc1ccccc1C1C(C#N)=C(N)OC2=C1C(=O)CCC2 (stereo not given) .
Completion: inactive

Prompt: I would be grateful if you could indicate the recorded call for COc1cc(C2C3=C(COC3=O)N(CCO)c3cc4c(cc32)CCC4)cc(OC)c1O (stereo not given) .
Completion: active

Prompt: I would be grateful if you could indicate the recorded call for Cc1ccc(C2=Nc3c(N)ncnc3NC(c3cccc(Nc4ccnc5cc(C(F)(F)F)ccc45)c3)C2)cc1 (stereo not given) .
Completion: inactive

Prompt: I would be grateful if you could indicate the recorded call for "CC[C@@]1(OC(=O)CN)C(=O)OCc2c1cc1n(c2=O)Cc2cc3cc(N)ccc3nc2-1" .
Completion: active

Prompt: I would be grateful if you could indicate the recorded call for "Cc1ccc([P+](Cc2ccc([N+](=O)[O-])cc2)(c2ccc(C)cc2)c2ccc(C)cc2)cc1" .
Completion: inactive

Prompt: I would be grateful if you could indicate the recorded call for "C/C(=C(/c1ccc(O)cc1)c1ccc(OCCN2CCCC2)cc1)c1ccccc1" .
Completion: inactive

Prompt: I would be grateful if you could indicate the recorded call for "C[C@@H](NC(=O)Cc1cc(F)cc(F)c1)C(=O)N[C@@]1(C)N=C(c2ccccc2)c2ccccc2N(C)C1=O" .
Completion: inactive
